System: RPMI-8226
Experiment: NCI tumour cell line growth inhibition, 48 h
The source made the active and inactive calls. No stated cut-off is given here; in the data, active = GI50 up to about 1.1 µM and inactive = higher.
The categories you may choose from are true (1) = active, false (0) = inactive

# compound, categoryLabel
rows = [
    ("COc1ccccc1N1C(=O)CSC1c1c[nH]c2ccccc12 (configuration not stated)", "false (0)"),
    ("CCOC(=O)C1=C(O)C(=O)c2ccoc2C1=O", "false (0)"),
    ("C=C(C)C12CC3CC(/C(=N/O)C(C1)/C3=N\\O)[C@@]2(C)O (some centres not stated)", "false (0)"),
    ("O=C(Nc1ccccc1)c1cc2ccccc2c(/N=N/c2ccc([N+](=O)[O-])cc2)c1O", "false (0)"),
    ("N#Cc1c(N)n(-c2cccc(C(=O)O)c2)c(=O)c2cc([N+](=O)[O-])ccc12", "false (0)"),
    ("CCCCCc1c(Cl)nc(Cl)nc1Cl", "false (0)"),
]

Next:
Fill in: this test's call for `N#Cc1c(-c2ccccc2)c(/N=N/c2ccc(Cl)cc2)c(=O)n2c1[nH]c1ccccc12` is ___
false (0)
